- Organism: Rattus norvegicus
- Measurement Protocol: Open TG-GATES - Regimen: Daily Repeat
- Format: toxicity, organism-based, Sprague-Dawley
- Parameters: regimen Daily Repeat, gender Male, age 6 weeks
- Measurement Setup: in vivo, po, 0 mg/kg, 72 h, tissue Plasma, route gavage, dose level Control, time 3 day
# CRE annotations
Number in mg/dL, nothing else.

For orientation, consider the following solved cases.
CCCCNC(=O)NS(=O)(=O)c1ccc(C)cc1 [TOLBUTAMIDE]    0.2
CN(CCOc1ccc(CC2SC(=O)NC2=O)cc1)c1ccccn1.O=C(O)/C=C\C(=O)O (stereo not given) [ROSIGLITAZONE MALEATE]    0.2
CN(C/C=C/C#CC(C)(C)C)Cc1cccc2ccccc12 [TERBINAFINE]    0.4
CC(=O)[C@@]1(O)CC[C@H]2[C@@H]3C=C(Cl)C4=CC(=O)CC[C@]4(C)[C@H]3CC[C@@]21C [CHLORMADINONE]    0.2

Continue with the compound presented below.
**Query** # CRE lookup, item O=c1ccc2ccccc2o1 [COUMARIN]
**Result** 0.5

====

- Species on record: Rattus norvegicus
- Measurement Protocol: Open TG-GATES - Regimen: Daily Repeat
- Type: toxicity, organism-based, Sprague-Dawley
- Parameters: regimen Daily Repeat, gender Male, age 6 weeks
- Measurement Setup: in vivo, po, 100 mg/kg, […], tissue Blood, route gavage, dose level Low, time 14 day
Assay Readout: Ret (%)
Number in %, nothing else.

CC(=O)[C@@]1(O)CC[C@H]2[C@@H]3C=C(Cl)C4=CC(=O)CC[C@]4(C)[C@H]3CC[C@@]21C    3.6
O=C(O)c1ccccc1Nc1ccccc1    4.5
CCCCNC(=O)NS(=O)(=O)c1ccc(C)cc1 [TOLBUTAMIDE]    4.1

Continue with the compound presented below.
**Query** # Ret lookup, item CC(S)C(=O)NCC(=O)O (centres undefined)
**Result** 5.6

====

- Species on record: Rattus norvegicus
- Measurement Protocol: Open TG-GATES - Regimen: Single
- Format: toxicity, organism-based, Sprague-Dawley
- Set-up: regimen Single, gender Male, age 6 weeks
- Measurement Setup: in vivo, po, 0 mg/kg, 6 h, tissue Plasma, route gavage, dose level Control
Assay Readout: TP (g/dL)
Number in g/dL, nothing else.

For orientation, consider the following solved cases.
CC(=O)[C@@]1(O)CC[C@H]2[C@@H]3C=C(Cl)C4=CC(=O)CC[C@]4(C)[C@H]3CC[C@@]21C    5.3
C=C[C@H]1C[N@@]2CC[C@H]1C[C@@H]2[C@@H](O)c1ccnc2ccc(OC)cc12    5.4
CCCCNC(=O)NS(=O)(=O)c1ccc(C)cc1 [TOLBUTAMIDE]    5.2
O=C(O)c1ccccc1Nc1ccccc1    5.4
CC(S)C(=O)NCC(=O)O (stereo not given)    5.3

**Query** # TP lookup, item `CN(C/C=C/C#CC(C)(C)C)Cc1cccc2ccccc12`
**Result** 5.5

**Query** # TP lookup, item `CCN(CC)C(=S)SSC(=S)N(CC)CC`
**Result** 5.3

**Query** # TP lookup, item `O=c1ccc2ccccc2o1`
**Result** 5.6

**Query** # TP lookup, item `COc1cc2ncnc(Nc3ccc(F)c(Cl)c3)c2cc1OCCCN1CCOCC1`
**Result** 5.4

The measured values listed here are drawn from ChEMBL document CHEMBL3885861.
